# target_of_assay: Sodium-dependent serotonin transporter (Homo sapiens)
# test_summary: Inhibition of serotonin reuptake at SERT
quantity_kind: IC50 (nM)

Q: Record request: IC50 value, item Cc1ccc(Oc2ccccc2CN(C)C)cc1
A: 3.46

Q: Record request: IC50 value, item CCc1cc(Oc2cc(Cl)ccc2CNC)ccc1Cl
A: 20.7

Q: Record request: IC50 value, item CNCc1cc(C(F)(F)F)ccc1Oc1ccc(C)cc1
A: 74.7

Q: Record request: IC50 value, item CNCc1ccc(Br)cc1Oc1ccc(Cl)c(Cl)c1
A: 5.1

A: CNCc1ccc(Cl)cc1Oc1ccc(F)c(C(F)(F)F)c1
B: CN(C)Cc1cc(CC(N)=O)ccc1Oc1ccc(Cl)c(Cl)c1
C: CNCc1cc(OC)ccc1Oc1ccc(Cl)c(Cl)c1
Q: List by increasing IC50. List the labels according to the requested ordering.
A: B, C, A

====

# target_of_assay: Voltage-gated inwardly rectifying potassium channel KCNH2 (Homo sapiens)
# Sequence (Q12809 whole entry): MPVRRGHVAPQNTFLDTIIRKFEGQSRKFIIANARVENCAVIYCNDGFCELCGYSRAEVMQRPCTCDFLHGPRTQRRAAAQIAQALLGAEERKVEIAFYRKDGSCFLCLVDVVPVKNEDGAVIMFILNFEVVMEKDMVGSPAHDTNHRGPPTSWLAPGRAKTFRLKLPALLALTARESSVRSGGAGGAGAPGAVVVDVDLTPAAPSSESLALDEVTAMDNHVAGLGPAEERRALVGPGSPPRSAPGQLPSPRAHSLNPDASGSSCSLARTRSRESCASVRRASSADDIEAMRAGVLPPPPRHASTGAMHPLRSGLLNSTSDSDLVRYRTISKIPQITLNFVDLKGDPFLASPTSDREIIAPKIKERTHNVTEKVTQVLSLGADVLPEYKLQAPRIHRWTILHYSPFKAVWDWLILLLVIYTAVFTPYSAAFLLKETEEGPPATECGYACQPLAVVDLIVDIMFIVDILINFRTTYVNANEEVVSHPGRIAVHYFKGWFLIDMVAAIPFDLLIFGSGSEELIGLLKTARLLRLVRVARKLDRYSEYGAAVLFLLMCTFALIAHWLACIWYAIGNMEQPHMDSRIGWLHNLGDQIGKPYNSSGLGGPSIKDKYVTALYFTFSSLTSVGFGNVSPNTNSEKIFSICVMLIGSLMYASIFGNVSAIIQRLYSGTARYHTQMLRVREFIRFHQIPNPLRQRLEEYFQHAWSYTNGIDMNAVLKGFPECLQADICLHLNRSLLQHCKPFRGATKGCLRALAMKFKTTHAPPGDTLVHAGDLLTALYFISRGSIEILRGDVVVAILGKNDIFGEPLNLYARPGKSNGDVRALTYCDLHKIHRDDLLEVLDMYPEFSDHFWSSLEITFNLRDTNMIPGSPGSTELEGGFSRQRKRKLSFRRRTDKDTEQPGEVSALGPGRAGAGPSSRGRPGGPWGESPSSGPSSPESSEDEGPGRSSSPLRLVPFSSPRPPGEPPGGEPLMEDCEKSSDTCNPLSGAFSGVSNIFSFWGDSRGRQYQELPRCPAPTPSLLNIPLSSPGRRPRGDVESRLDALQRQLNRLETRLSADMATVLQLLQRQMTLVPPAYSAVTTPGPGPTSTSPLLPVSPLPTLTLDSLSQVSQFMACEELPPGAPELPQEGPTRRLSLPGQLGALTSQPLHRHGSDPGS
# Lookup of reported IC50 keyed by entry
Write the answer as a number in µM, unit excluded.

Use the examples below as a reference point.
Q: Give Voltage-gated inwardly rectifying potassium channel KCNH2 (Homo sapiens) IC50 for CNCc1ccc(C(F)(F)F)cc1Oc1ccc(Cl)cc1
A: 5.11

Q: Give Voltage-gated inwardly rectifying potassium channel KCNH2 (Homo sapiens) IC50 for CNCc1cc(C(F)(F)F)ccc1Oc1ccc(C)cc1
A: 10.4

Q: Give Voltage-gated inwardly rectifying potassium channel KCNH2 (Homo sapiens) IC50 for CNC(C)c1cc(C(F)(F)F)ccc1Oc1ccc(Cl)c(Cl)c1 (stereo not given)
A: 3.03

Continuing:
Q: Give Voltage-gated inwardly rectifying potassium channel KCNH2 (Homo sapiens) IC50 for CNCc1ccc(Cl)cc1Oc1ccc(Cl)c(F)c1
A: 1.23

Q: Give Voltage-gated inwardly rectifying potassium channel KCNH2 (Homo sapiens) IC50 for CNCc1ccc(Cl)cc1Oc1ccc(F)c(C(F)(F)F)c1
A: 0.873

Q: Give Voltage-gated inwardly rectifying potassium channel KCNH2 (Homo sapiens) IC50 for CNC(C)c1ccc(Cl)cc1Oc1ccc(C)cc1 (stereo not given)
A: 3.69

Q: Give Voltage-gated inwardly rectifying potassium channel KCNH2 (Homo sapiens) IC50 for CNCc1cc(C(N)=O)ccc1Oc1ccc(Cl)c(Cl)c1
A: 5.44

Q: Give Voltage-gated inwardly rectifying potassium channel KCNH2 (Homo sapiens) IC50 for CNCc1cc(C#N)ccc1Oc1ccc(Cl)c(Cl)c1
A: 4.56

====

# target_of_assay: Sodium-dependent serotonin transporter (Homo sapiens, UniProt P31645)
# Sequence (P31645 whole entry): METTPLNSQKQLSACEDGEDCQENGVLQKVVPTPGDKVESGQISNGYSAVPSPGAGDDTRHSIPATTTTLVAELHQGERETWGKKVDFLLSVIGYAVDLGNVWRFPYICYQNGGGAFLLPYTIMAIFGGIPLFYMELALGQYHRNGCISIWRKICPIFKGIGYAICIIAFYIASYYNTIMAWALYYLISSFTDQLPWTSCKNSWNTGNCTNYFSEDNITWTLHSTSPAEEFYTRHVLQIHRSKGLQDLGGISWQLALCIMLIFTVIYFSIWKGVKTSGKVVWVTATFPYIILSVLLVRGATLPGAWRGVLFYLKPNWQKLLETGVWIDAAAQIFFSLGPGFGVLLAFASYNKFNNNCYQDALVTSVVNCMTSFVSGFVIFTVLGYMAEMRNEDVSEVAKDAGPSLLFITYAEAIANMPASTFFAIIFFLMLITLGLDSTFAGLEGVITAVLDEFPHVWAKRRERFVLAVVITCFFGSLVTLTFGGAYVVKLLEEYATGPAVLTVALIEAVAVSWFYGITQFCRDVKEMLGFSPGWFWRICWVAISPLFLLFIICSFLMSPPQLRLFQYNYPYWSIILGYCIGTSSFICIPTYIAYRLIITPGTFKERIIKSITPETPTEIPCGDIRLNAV
# test_summary: Inhibition of serotonin reuptake at SERT
quantity_kind: IC50 (µM)

a: CNCc1cc(F)ccc1Oc1ccc(Cl)c(F)c1
b: CNCc1ccc(Cl)cc1Oc1ccc(Cl)c(Cl)c1
Q: Which value of IC50 is smaller, the one for a or the one for b ? Please indicate the selected item by its label.
A: b

====

This document collects IC50 values reported for UniProt:Q12809.
Write the answer as a number in µM, unit excluded.

Q: Give UniProt:Q12809 IC50 for Cc1ccc(Oc2ccc(Cl)c(Cl)c2)c(CN(C)C)c1
A: 3.39

Q: Give UniProt:Q12809 IC50 for CNCc1cc(S(=O)(=O)NC)ccc1Oc1ccc(Cl)c(Cl)c1
A: 4.8

Q: Give UniProt:Q12809 IC50 for CSc1ccc(Oc2ccccc2CN(C)C)cc1
A: 3.02

Continuing:
Q: Give UniProt:Q12809 IC50 for CNCc1cc(C)c(C)cc1Oc1ccc(Cl)c(Cl)c1
A: 1.48

Q: Give UniProt:Q12809 IC50 for CCc1cc(Oc2cc(Cl)ccc2CNC)ccc1Cl
A: 1.15

Q: Give UniProt:Q12809 IC50 for CNCc1ccc(C#N)cc1Oc1ccc(Cl)c(Cl)c1
A: 1.31

Q: Give UniProt:Q12809 IC50 for CNCc1ccc(Cl)cc1Oc1cccc(Cl)c1
A: 2.11
